biological target: Human TASK-1 channels (Homo sapiens (Human)); assay: Determination of the activity on the TASK-1 channel in Xenopus oocytes (two-microelectrode voltage clamp); conditions: human TASK-1 expressed in Xenopus oocytes, room temperature; read-out: IC50 value for TASK-1 inhibition
Sequence (O14649 whole entry): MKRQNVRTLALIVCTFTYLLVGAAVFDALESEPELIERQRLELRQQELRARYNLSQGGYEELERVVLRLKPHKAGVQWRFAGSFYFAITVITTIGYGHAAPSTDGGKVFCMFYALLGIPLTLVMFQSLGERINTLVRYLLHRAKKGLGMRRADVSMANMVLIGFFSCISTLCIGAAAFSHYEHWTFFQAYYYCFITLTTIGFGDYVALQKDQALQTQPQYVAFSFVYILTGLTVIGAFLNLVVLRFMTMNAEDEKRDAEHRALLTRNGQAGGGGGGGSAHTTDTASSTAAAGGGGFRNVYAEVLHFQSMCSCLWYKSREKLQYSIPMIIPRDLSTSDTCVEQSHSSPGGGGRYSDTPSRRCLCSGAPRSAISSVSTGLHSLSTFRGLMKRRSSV
MEASUREMENT LABEL: IC50 (nM)

Example molecules with recorded IC50:
> print(dat)
                                   molecule  reading.unit  result.number
1  CC[C@@H](NC(=O)c1cc(C(=O)N[C@H](C)c2ccc(F)cc2)n2c1COCC2)c1cccnc1C(F)(F)F [16dt]            nM           1000
2  CC[C@@H](NC(=O)c1cc(C(=O)NCc2ccc(F)cc2F)c2n1CCOC2)c1cccc(OC)n1 [16nt]            nM            670
3  CC[C@@H](NC(=O)c1cc(C(=O)NCc2ncco2)c2n1CCOC2)c1ccccc1 [16jn]            nM           1000

a = CC[C@H](NC(=O)c1cc(C(=O)N[C@@H](CC)c2ncccn2)c2n1CCOC2)c1ccccc1 [16kc]
b = CC[C@@H](NC(=O)c1cc(C(=O)NCc2cccc(C#N)c2)n2c1COCC2)c1ccccc1 [16gs]
Between the entries labeled a and b , whose measured IC50 is lower? Bench note: the answer is the label of the chosen record.
b
